This collection of values is drawn from PubChem BioAssay (NCATS).

Assay: S16 Schwann cell PMP22 intronic element beta-lactamase assay (AID 624044);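 further: 0% = DMSO and -100% = potassium clavulanate positive control; nearly all actives have a fitted effect of over 15% in size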
Settings: S16 rat Schwann cells, PMP22 element beta-lactamase FRET, 24 h; at 38.3 µM (top of the series) unless noted
Results filed as inconclusive are left out. Activity calls are given as the source filed them. The call rests on the fitted dose curve.
Assign ratio activity, negative = inhibition to each entry below.

Please review the following examples before continuing.
compound: C=Cc1ccc(S(=O)(=O)O)cc1
ratio activity, negative = inhibition: -7.16% (inactive)

compound: O=C(CCCCCCCCCCCCC1CCCC1)Nc1ccc(S(=O)(=O)c2ccc(NC(=O)CCCCCCCCCCCCC3CCCC3)cc2)cc1
ratio activity, negative = inhibition: 4.78% (inactive)

compound: CCSc1ccc2c(c1)N(CCCN1CCN(C)CC1)c1ccccc1S2
ratio activity, negative = inhibition: 0.419% [at 17.1 µM] (inactive)

Return reported ratio activity, negative = inhibition values for all items listed beneath this line.
1. Cc1cc(=O)c(C(=O)N[C@@H](C(=O)N[C@@H]2C(=O)N3C(C(=O)O)=C(CSc4nnnn4C)CS[C@H]23)c2ccc(O)cc2)c[nH]1
2. CC(C)[C@@H](N)C(=O)O
3. CC(C)(COP(=O)(O)OP(=O)(O)OC[C@H]1O[C@@H](n2cnc3c(N)ncnc32)[C@H](O)[C@@H]1OP(=O)(O)O)C(O)C(=O)NCCC(=O)NCCS (some centres undefined)
4. CCCCCCCCCCCC(=O)OCC(O)CO (centres undefined)
5. CCN(CC)CCC(=O)N1c2ccccc2Sc2ccc(C(F)(F)F)cc21

1: 0.254% (inactive); 2: 0.806% (inactive); 3: 1.27% (inactive); 4: 1% (inactive); 5: -1.58% (inactive)

Using the record for CN1C(C(=O)Nc2ccccn2)C(=O)c2sc(Cl)cc2S1(=O)=O (centres undefined) , report its ratio activity, negative = inhibition.
6.16% (inactive)

----------
Test system: KB-3-1
Assay: Cytotoxic Profiling of Annotated Libraries Using Quantitative High-Throughput Screening (AID 1296008); further: on the % scale 0 is the no-effect control and ±100 the full control effect; nearly all actives have a fitted effect of over 60% in size
Settings: Five cell lines viability, CellTiter-Glo ATP luminescence, 48-72 h; stronger effect = lower value
Experimental: Cell-based phenotypic screening is a commonly used approach to discover biological pathways, novel drug targets, chemical probes and high-quality hit-to-lead molecules. […] A pintool (Kalypsys) was used to transfer 23 nL of compound solution to the 1536-well assay plates. […] Plates were left at room temperature for 10 min before imaging the ATP-coupled luminescence using a ViewLux microplate imager (PerkinElmer, Waltham, MA).
Inconclusive results are not listed. The source made the active and inactive calls. The call rests on the fitted dose curve; in most records, active means well fitted inhibition curve with a large enough effect; inconclusive means small, poorly fitted or top-dose-only effect; inactive means flat fitted curve, though single readings scatter.
Assign max response to each entry below.

compound: Cc1ncc(C[n+]2csc(CCOP(=O)(O)OP(=O)(O)O)c2C)c(N)n1
measured-property: max response
recorded-result: -1.51% (inactive)
--
compound: CC(C)(CO)[C@@H](O)C(=O)NCCCC(=O)O
measured-property: max response
recorded-result: -10.7% (inactive)
--
compound: NS(=O)(=O)c1cc2c(cc1Cl)NC(Cc1ccccc1)NS2(=O)=O (centres undefined)
measured-property: max response
recorded-result: -0.731% (inactive)
--
compound: O=C1NCCN1c1ncc([N+](=O)[O-])s1
measured-property: max response
recorded-result: 1.83% (inactive)
--
compound: [O]=[Bi][O]C(=O)[O][Bi]=[O]
measured-property: max response
recorded-result: -15.6% (inactive)
--
compound: CCCC(=O)O
measured-property: max response
recorded-result: 2.03% (inactive)

For every record below, what is its max response?
1. CC(CC=O)CCCC(C)(C)O (centres undefined)
2. CC[C@H]1OC(=O)[C@H](C)[C@@H](O[C@H]2C[C@@](C)(OC)[C@@H](O)[C@H](C)O2)[C@H](C)[C@@H](O[C@@H]2O[C@H](C)C[C@H](N(C)C)[C@H]2O)[C@](C)(O)C[C@@H](C)CN(C)[C@H](C)[C@@H](O)[C@]1(C)O
3. CNC(=O)C[C@@H](N)C(=O)N[C@@H](C(=O)N[C@@H]1C(=O)N2[C@@H]1SC(C)(C)[C@@H]2C(=O)O)c1ccc(O)cc1

1. 7.65% (inactive)
2. -8.69% (inactive)
3. -18.5% (inactive)

----------
Assay: Cell Viability - LYMP2-023 (AID 975);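 further: cells exposed to compound for 24 hours at 37 °C; nearly all actives have a fitted effect of over 55% in size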
Settings: LYMP2-023 lymphoblastoid cell viability; series mostly up to 92.2 µM
Inconclusive results are not listed. Active and inactive are the calls of the source. The call rests on the fitted dose curve; in most records, active means well fitted cell-killing curve with a large enough effect; inconclusive means small, poorly fitted or top-dose-only effect; inactive means flat fitted curve, though single readings scatter.
Permitted responses: true = active, false = inactive

Examples with answers:
molecule: CC1=CC(=O)NS(=O)(=O)O1
class: false

molecule: C[C@H](CCC(=O)O)[C@H]1CC[C@H]2[C@@H]3[C@H](O)C[C@@H]4C[C@H](O)CC[C@]4(C)[C@H]3C[C@H](O)[C@]12C
class: false

molecule: Nc1ccc(N=Nc2ccccc2)c(N)n1
class: false

molecule: OB(O)O
class: false

molecule: C[C@H](CCC(=O)O)[C@H]1CC[C@H]2[C@@H]3CC[C@@H]4C[C@H](O)CC[C@]4(C)[C@H]3C[C@H](O)[C@]12C
class: false

Per the assay record, what outcome was assigned to "CC(C)O" ?
false

Same lookup for "CO/N=C(/C(=O)N[C@@H]1C(=O)N2C(C(=O)O)=C(COC(N)=O)CS[C@H]12)c1ccco1" , please.
false

Now give it for "c1ccc2ccccc2c1" too.
false

Same lookup for "Cc1ncc[nH]1" , please.
false

Now consider C=C1C(CCl)(CCl)C2(Cl)C(Cl)C(Cl)C1(Cl)C2(Cl)Cl (centres undefined) .
true

Follow-up item: "NC(N)=O"
false

What about "O.O.O.O.O.O.O.O=S(=O)([O-])[O-].[Co+2]" ?
false

Here is the next molecule: "OC[C@H]1O[C@@H]2O[C@H]3[C@H](O)[C@@H](O)[C@@H](O[C@H]4[C@H](O)[C@@H](O)[C@@H](O[C@H]5[C@H](O)[C@@H](O)[C@@H](O[C@H]6[C@H](O)[C@@H](O)[C@@H](O[C@H]7[C@H](O)[C@@H](O)[C@@H](O[C@H]1[C@H](O)[C@H]2O)O[C@@H]7CO)O[C@@H]6CO)O[C@@H]5CO)O[C@@H]4CO)O[C@@H]3CO"
false

Try "Oc1cccc(O)c1O" next.
false

----------
Test system: CP247
Test: qHTS profiling for inhibitors of Plasmodium falciparum proliferation (AID 504749); further: nearly all actives have a fitted effect of over 60% in size
Details: P. falciparum in erythrocytes, SYBR Green DNA, 72 h; series mostly up to 28.7 µM
Inconclusive results are not listed. Calls of active or inactive are those of the source. Calls come from the whole dose curve; as a rule, active = well fitted inhibition curve with a large enough effect; inconclusive = small, poorly fitted or top-dose-only effect; inactive = flat fitted curve, though single readings scatter.
The reply should name one outcome from 1.0 (active), 0.0 (inactive)

compound: Cc1cc(C)c(NC(=O)C[C@H](CC(=O)O)c2cccc3ccccc23)c(C(=O)N2CCC3(CCCC3)CC2)c1
class: 0.0

Hi team, can someone confirm the assay call for CCCCC(CC)CCC(CC(C)C)OS(=O)(=O)O (stereo unspecified) ?
0.0

And what about the compound "CC1=CC(=C(c2ccc(N)cc2)c2ccc(N)cc2)C=CC1=N" ?
1.0

Please do the same for "COc1cc(C)c(/C=C/C(C)=C/C=C/C(C)=C/C(=O)O)c(C)c1C" as well.
0.0

Repeat with "O=C(O)[C@H]1C(=CCO)O[C@H]2CC(=O)N12"
0.0

Also "CC(=O)Nc1c(I)c(C(=O)O)c(I)c(N(C)C(C)=O)c1I" ?
0.0

Next record, please: "CC(C)=CCC/C(C)=C/C=C/C(C)=C/C=C/C(C)=C/C=C/C=C(C)/C=C/C=C(C)/C=C/C=C(\C)CCC=C(C)C"
0.0

----------
Test system: Hek293T
Assay: Primary qHTS to identify gynecologic anti-cancer compounds using libraries of approved drugs and bioactive compounds (AID 1345084); further: nearly all actives have a fitted effect of over 55% in size
Conditions: Gynecologic cancer cell panel viability, ATPlite luminescence, 48 h, control line for the selectivity index; series mostly up to 57.5 µM
Results filed as inconclusive are left out. Activity calls are given as the source filed them. The call rests on the fitted dose curve; in most records, active means well fitted cell-killing curve with a large enough effect; inconclusive means small, poorly fitted or top-dose-only effect, or effect the other way; inactive means flat fitted curve, though single readings scatter.
Respond using exactly one of the listed classes: T (active), F (inactive)

Would you please look over these solved cases?
molecule: C[C@H]1O[C@@H](O[C@H]2[C@@H](O)C[C@H](O[C@H]3[C@@H](O)C[C@H](O[C@H]4CC[C@@]5(C)[C@H](CC[C@@H]6[C@@H]5C[C@@H](O)[C@]5(C)[C@@H](C7=CC(=O)OC7)CC[C@]65O)C4)O[C@@H]3C)O[C@@H]2C)C[C@H](O)[C@@H]1O
class: T
--
molecule: COc1ccc2nc(NC(=O)Nc3ccccc3)sc2c1
class: T
--
molecule: CC(C)(C)c1ccc(CN2CCN(C(c3ccccc3)c3ccc(Cl)cc3)CC2)cc1 (centres undefined)
class: F
--
molecule: N[C@@H](Cc1cc(I)c(Oc2ccc(O)c(I)c2)c(I)c1)C(=O)O
class: F
--
molecule: O=C1c2ccccc2C(=O)c2c1ccc(O)c2O
class: F

Please look at the following molecule next.
Could you check what this test reported for "CO[C@H]1C[C@@H]2CC[C@@H](C)[C@@](O)(O2)C(=O)C(=O)N2CCCC[C@H]2C(=O)O[C@H]([C@H](C)C[C@@H]2CC[C@@H](OC(=O)C(C)(CO)CO)[C@H](OC)C2)CC(=O)[C@H](C)/C=C(\C)[C@@H](O)[C@@H](OC)C(=O)[C@H](C)C[C@H](C)/C=C/C=C/C=C/1C" ?
F
